- protocolDescription: Cell viability by MTT assay
- Assay type: cell-based
- conditionInfo: mouse, murine peritoneal macrophages, 10 µM, vs vehicle (DMSO)
Param label: returns 1 (yes) when viability at 20 h, 10 µM < 90%, returns 0 (no) otherwise, including exact equality.

{"columns": ["compound", "qualitativeLabel"],
 "data": [
  ["CC(C)(C)c1cc(NCC(=O)N/N=C/c2ccc(Cl)cc2)n(-c2ccccc2)n1 [Compound 4f]", "1 (yes)"],
  ["CC(C)(C)c1cc(NCC(=O)N/N=C/c2ccc(O)cc2)n(-c2ccccc2)n1 [Compound 4e]", "0 (no)"],
  ["CC(C)(C)c1cc(NCC(=O)N/N=C/c2ccc(OCCN3CCOCC3)cc2)n(-c2ccccc2)n1 [Compound 4d]", "0 (no)"],
  ["C[S+]([O-])c1ccc(-c2nc(-c3ccncc3)c(-c3ccc(F)cc3)[nH]2)cc1 (centres unmarked) [SB-203580 (1), SB-203580, reference compound]", "1 (yes)"],
  ["CC(C)(C)c1cc(NCC(=O)N/N=C/c2ccc(OCCN3CCOCC3)c3ccccc23)n(-c2ccccc2)n1 [Compound 4a]", "1 (yes)"],
  ["CC(C)(C)c1cc(NCC(=O)N/N=C/c2ccccc2)n(-c2ccccc2)n1 [Compound 4g]", "0 (no)"],
  ["CC(C)(C)c1cc(NCC(=O)N/N=C/c2ccc(O)c3ccccc23)n(-c2ccccc2)n1 [Compound 4b]", "0 (no)"]
]}
